# ASSAYED TARGET: UniProt Q02750
# Sequence (Q02750 whole entry, looked up): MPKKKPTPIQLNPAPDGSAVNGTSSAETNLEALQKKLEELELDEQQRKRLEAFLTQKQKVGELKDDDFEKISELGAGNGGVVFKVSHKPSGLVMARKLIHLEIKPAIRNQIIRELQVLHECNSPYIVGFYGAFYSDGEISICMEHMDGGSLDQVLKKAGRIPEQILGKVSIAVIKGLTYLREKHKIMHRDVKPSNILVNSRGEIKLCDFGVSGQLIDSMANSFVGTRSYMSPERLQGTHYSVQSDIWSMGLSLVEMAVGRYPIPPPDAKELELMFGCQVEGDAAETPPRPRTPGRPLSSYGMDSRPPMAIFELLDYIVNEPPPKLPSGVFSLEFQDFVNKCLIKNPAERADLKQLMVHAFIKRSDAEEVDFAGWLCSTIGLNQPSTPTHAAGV
# ASSAY EXPLANATION: KINOMEscan competition binding
# CONDITION DESCRIPTION: compound 10.0 µM
Below is a list of entries, each paired with its recorded kinase still bound, per cent of control value.
MEASURED METRIC: kinase still bound, per cent of control

STRUCTURE: CCN(CC)CCCCNc1ncc2c(n1)N(C)C(=O)N(c1c(Cl)c(OC)cc(OC)c1Cl)C2
RESULT: 100%
--
STRUCTURE: CS(=O)(=O)N1CCN(Cc2cc3nc(-c4cccc5[nH]ncc45)nc(N4CCOCC4)c3s2)CC1
RESULT: 100%
--
STRUCTURE: CNC(=O)c1cc(Oc2ccc(NC(=O)Nc3ccc(Cl)c(C(F)(F)F)c3)cc2)ccn1
RESULT: 100%

----------
# ASSAYED TARGET: PRKD3 (human) (UniProt O94806)
# Sequence (O94806 whole entry, looked up): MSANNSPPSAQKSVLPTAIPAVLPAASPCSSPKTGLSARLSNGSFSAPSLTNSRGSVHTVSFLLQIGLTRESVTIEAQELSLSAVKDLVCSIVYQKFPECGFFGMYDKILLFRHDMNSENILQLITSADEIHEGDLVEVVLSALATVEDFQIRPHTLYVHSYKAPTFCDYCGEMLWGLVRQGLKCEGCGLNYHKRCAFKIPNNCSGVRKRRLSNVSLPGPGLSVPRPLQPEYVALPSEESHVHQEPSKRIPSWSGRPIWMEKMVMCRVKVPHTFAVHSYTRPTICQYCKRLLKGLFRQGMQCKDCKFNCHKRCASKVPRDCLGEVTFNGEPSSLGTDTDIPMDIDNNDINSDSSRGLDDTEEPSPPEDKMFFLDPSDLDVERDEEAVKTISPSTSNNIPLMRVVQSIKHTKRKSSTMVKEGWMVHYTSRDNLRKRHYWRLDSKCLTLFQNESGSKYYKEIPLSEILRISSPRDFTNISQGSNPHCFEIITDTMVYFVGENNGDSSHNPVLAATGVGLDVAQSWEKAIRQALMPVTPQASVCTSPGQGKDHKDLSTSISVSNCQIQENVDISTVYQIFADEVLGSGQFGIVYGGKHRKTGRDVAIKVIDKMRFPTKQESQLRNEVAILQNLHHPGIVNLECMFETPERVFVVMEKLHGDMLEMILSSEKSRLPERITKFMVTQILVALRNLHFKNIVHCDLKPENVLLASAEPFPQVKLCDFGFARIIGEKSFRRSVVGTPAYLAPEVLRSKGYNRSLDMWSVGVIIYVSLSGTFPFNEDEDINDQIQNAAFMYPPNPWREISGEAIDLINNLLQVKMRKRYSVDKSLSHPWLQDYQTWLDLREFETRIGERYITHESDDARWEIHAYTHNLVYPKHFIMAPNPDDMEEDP
# ASSAY EXPLANATION: KINOMEscan competition binding
# CONDITION DESCRIPTION: compound 10.0 µM
Below is a list of entries, each paired with its recorded kinase still bound, per cent of control value.
MEASURED METRIC: kinase still bound, per cent of control (%)

STRUCTURE: C=CC(=O)Nc1cc(-n2c(=O)ccc3cnc4ccc(-c5cn[nH]c5)cc4c32)ccc1C
ASSAYED TARGET: PRKD3 (human) (UniProt O94806)
MEASURED METRIC: kinase still bound, per cent of control
READOUT NUMBER: 98
--
STRUCTURE: O=c1cc(N2CCOCC2)oc2c(-c3cccc4c3sc3ccccc34)cccc12
ASSAYED TARGET: PRKD3 (human) (UniProt O94806)
MEASURED METRIC: kinase still bound, per cent of control
READOUT NUMBER: 100
--
STRUCTURE: CNC(=O)c1cc(Oc2ccc(NC(=O)Nc3ccc(Cl)c(C(F)(F)F)c3)cc2)ccn1
ASSAYED TARGET: PRKD3 (human) (UniProt O94806)
MEASURED METRIC: kinase still bound, per cent of control
READOUT NUMBER: 67
--
STRUCTURE: CNC(=O)c1ccc(Nc2cc(Nc3ccccc3S(=O)(=O)C(C)C)c3cc[nH]c3n2)nc1
ASSAYED TARGET: PRKD3 (human) (UniProt O94806)
MEASURED METRIC: kinase still bound, per cent of control
READOUT NUMBER: 100

----------
# ASSAYED TARGET: CHEK1 (human)
# ASSAY EXPLANATION: KINOMEscan competition binding
# CONDITION DESCRIPTION: compound 10.0 µM
Below is a list of entries, each paired with its recorded kinase still bound, per cent of control value.

STRUCTURE: CN(C)C/C=C/C(=O)Nc1ccc(C(=O)Nc2cccc(Nc3nccc(-c4cccnc4)n3)c2)cc1
OUTPUT UNIT: %
kinase still bound, per cent of control: 100
--
STRUCTURE: CS(=O)(=O)N1CCN(Cc2cc3nc(-c4cccc5[nH]ncc45)nc(N4CCOCC4)c3s2)CC1
OUTPUT UNIT: %
kinase still bound, per cent of control: 100
--
STRUCTURE: C[C@@H](Oc1cc(-c2cnn(C3CCNCC3)c2)cnc1N)c1c(Cl)ccc(F)c1Cl
OUTPUT UNIT: %
kinase still bound, per cent of control: 91
--
STRUCTURE: COc1cc(C(=O)N2CCC(N3CCN(C)CC3)CC2)ccc1Nc1ncc2c(n1)N(C)c1ccccc1C(=O)N2C
OUTPUT UNIT: %
kinase still bound, per cent of control: 100
--
STRUCTURE: NC(=O)Nc1cc(-c2cccc(F)c2)sc1C(=O)N[C@@H]1CCCNC1
OUTPUT UNIT: %
kinase still bound, per cent of control: 0.25
--
STRUCTURE: CCN(CC)CCCCNc1ncc2cc(-c3cc(OC)cc(OC)c3)c(NC(=O)NC(C)(C)C)nc2n1
OUTPUT UNIT: %
kinase still bound, per cent of control: 100
--
STRUCTURE: N#CCNC(=O)c1ccc(-c2ccnc(Nc3ccc(N4CCOCC4)cc3)n2)cc1
OUTPUT UNIT: %
kinase still bound, per cent of control: 100
--
STRUCTURE: Cc1n[nH]c2ccc(-c3cncc(OC[C@@H](N)Cc4c[nH]c5ccccc45)c3)cc12
OUTPUT UNIT: %
kinase still bound, per cent of control: 100
--
STRUCTURE: CNC(=O)c1cc(Oc2ccc(NC(=O)Nc3ccc(Cl)c(C(F)(F)F)c3)cc2)ccn1
OUTPUT UNIT: %
kinase still bound, per cent of control: 91

----------
# ASSAYED TARGET: EPHB2 (human) (UniProt P29323)
# Sequence (P29323 whole entry, looked up): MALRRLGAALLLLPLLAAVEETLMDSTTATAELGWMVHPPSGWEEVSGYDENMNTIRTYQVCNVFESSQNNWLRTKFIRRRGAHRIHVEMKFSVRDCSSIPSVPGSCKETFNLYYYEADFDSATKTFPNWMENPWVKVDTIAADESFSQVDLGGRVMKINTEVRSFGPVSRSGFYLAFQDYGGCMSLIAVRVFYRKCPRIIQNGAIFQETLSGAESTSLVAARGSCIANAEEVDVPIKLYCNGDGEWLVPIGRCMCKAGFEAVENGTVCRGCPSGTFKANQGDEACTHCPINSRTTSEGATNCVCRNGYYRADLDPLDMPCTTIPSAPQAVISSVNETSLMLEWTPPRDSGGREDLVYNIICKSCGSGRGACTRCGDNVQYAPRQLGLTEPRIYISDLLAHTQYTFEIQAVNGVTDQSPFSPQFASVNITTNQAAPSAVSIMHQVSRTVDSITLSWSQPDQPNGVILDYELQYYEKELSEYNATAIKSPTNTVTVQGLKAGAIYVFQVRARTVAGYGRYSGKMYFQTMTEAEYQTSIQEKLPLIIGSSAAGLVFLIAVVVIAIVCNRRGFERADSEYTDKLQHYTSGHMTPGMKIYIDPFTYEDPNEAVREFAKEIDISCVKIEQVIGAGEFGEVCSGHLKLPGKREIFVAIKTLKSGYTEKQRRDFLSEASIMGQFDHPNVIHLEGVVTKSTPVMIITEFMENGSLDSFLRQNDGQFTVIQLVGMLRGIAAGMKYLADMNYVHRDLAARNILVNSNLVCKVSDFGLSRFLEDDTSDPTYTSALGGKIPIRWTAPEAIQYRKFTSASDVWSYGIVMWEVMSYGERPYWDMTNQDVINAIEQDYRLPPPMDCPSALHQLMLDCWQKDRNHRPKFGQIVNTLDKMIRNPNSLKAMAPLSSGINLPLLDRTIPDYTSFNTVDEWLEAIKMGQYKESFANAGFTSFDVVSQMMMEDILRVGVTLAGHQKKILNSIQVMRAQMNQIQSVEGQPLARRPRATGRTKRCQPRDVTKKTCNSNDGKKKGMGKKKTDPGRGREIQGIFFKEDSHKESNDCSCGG
# ASSAY EXPLANATION: KINOMEscan competition binding
# CONDITION DESCRIPTION: compound 10.0 µM
Below is a list of entries, each paired with its recorded kinase still bound, per cent of control value.

STRUCTURE: C=CC(=O)Nc1cc(-n2c(=O)ccc3cnc4ccc(-c5cn[nH]c5)cc4c32)ccc1C
ASSAYED TARGET: EPHB2 (human) (UniProt P29323)
kinase still bound, per cent of control (%): 100
--
STRUCTURE: COCC(=O)NC/C=C/c1ccc2ncnc(Nc3ccc(Oc4ccc(C)nc4)c(C)c3)c2c1
ASSAYED TARGET: EPHB2 (human) (UniProt P29323)
kinase still bound, per cent of control (%): 100
--
STRUCTURE: O=c1cc(N2CCOCC2)oc2c(-c3cccc4c3sc3ccccc34)cccc12
ASSAYED TARGET: EPHB2 (human) (UniProt P29323)
kinase still bound, per cent of control (%): 91

----------
# ASSAYED TARGET: CDK15 (human)
# ASSAY EXPLANATION: KINOMEscan competition binding
# CONDITION DESCRIPTION: compound 10.0 µM
MEASURED METRIC: kinase still bound, per cent of control (%)

STRUCTURE: Cc1n[nH]c2ccc(-c3cncc(OC[C@@H](N)Cc4c[nH]c5ccccc45)c3)cc12
OUTPUT UNIT: %
READOUT NUMBER: 16

STRUCTURE: CNC(=O)c1ccc(Nc2cc(Nc3ccccc3S(=O)(=O)C(C)C)c3cc[nH]c3n2)nc1
OUTPUT UNIT: %
READOUT NUMBER: 18

STRUCTURE: C=CC(=O)Nc1cc(-n2c(=O)ccc3cnc4ccc(-c5cn[nH]c5)cc4c32)ccc1C
OUTPUT UNIT: %
READOUT NUMBER: 49

STRUCTURE: COc1ccc(N(C(=O)Oc2c(C)cccc2C)c2ccnc(Nc3ccc(N4CCN(C)CC4)cc3)n2)c(OC)c1
OUTPUT UNIT: %
READOUT NUMBER: 94

STRUCTURE: CNC(=O)c1cc(Oc2ccc(NC(=O)Nc3ccc(Cl)c(C(F)(F)F)c3)cc2)ccn1
OUTPUT UNIT: %
READOUT NUMBER: 19

STRUCTURE: CN(C)C/C=C/C(=O)Nc1ccc(C(=O)Nc2cccc(Nc3nccc(-c4cccnc4)n3)c2)cc1
OUTPUT UNIT: %
READOUT NUMBER: 100

STRUCTURE: COc1cc(N2CCN(C)CC2)ccc1Nc1ncc2c(n1)N(C)c1ccccc1C(=O)N2C
OUTPUT UNIT: %
READOUT NUMBER: 100

STRUCTURE: CS(=O)(=O)N1CCN(Cc2cc3nc(-c4cccc5[nH]ncc45)nc(N4CCOCC4)c3s2)CC1
OUTPUT UNIT: %
READOUT NUMBER: 100

STRUCTURE: O=C1NC(=O)/C(=C/c2ccc3nccc(-c4ccncc4)c3c2)S1
OUTPUT UNIT: %
READOUT NUMBER: 9.6

----------
# ASSAYED TARGET: MKNK2 (human)
# ASSAY EXPLANATION: KINOMEscan competition binding
# CONDITION DESCRIPTION: compound 10.0 µM

STRUCTURE: CCN1CCN(C(=O)Cc2ccc(Nc3ncc(F)c(Nc4ccc(C(=O)Nc5ccccc5Cl)cc4)n3)cc2)CC1
ASSAYED TARGET: MKNK2 (human)
kinase still bound, per cent of control: 5.6%
//
STRUCTURE: CNC(=O)c1cc(Oc2ccc(NC(=O)Nc3ccc(Cl)c(C(F)(F)F)c3)cc2)ccn1
ASSAYED TARGET: MKNK2 (human)
kinase still bound, per cent of control: 0.1%
//
STRUCTURE: C[C@@H](Oc1cc(-c2cnn(C3CCNCC3)c2)cnc1N)c1c(Cl)ccc(F)c1Cl
ASSAYED TARGET: MKNK2 (human)
kinase still bound, per cent of control: 11%
//
STRUCTURE: O=C(Nc1cccc(Nc2ncc(Br)c(NCCc3cnc[nH]3)n2)c1)N1CCCC1
ASSAYED TARGET: MKNK2 (human)
kinase still bound, per cent of control: 0.1%

----------
# ASSAYED TARGET: DDR1 (human) (UniProt Q08345)
# Sequence (Q08345 whole entry, looked up): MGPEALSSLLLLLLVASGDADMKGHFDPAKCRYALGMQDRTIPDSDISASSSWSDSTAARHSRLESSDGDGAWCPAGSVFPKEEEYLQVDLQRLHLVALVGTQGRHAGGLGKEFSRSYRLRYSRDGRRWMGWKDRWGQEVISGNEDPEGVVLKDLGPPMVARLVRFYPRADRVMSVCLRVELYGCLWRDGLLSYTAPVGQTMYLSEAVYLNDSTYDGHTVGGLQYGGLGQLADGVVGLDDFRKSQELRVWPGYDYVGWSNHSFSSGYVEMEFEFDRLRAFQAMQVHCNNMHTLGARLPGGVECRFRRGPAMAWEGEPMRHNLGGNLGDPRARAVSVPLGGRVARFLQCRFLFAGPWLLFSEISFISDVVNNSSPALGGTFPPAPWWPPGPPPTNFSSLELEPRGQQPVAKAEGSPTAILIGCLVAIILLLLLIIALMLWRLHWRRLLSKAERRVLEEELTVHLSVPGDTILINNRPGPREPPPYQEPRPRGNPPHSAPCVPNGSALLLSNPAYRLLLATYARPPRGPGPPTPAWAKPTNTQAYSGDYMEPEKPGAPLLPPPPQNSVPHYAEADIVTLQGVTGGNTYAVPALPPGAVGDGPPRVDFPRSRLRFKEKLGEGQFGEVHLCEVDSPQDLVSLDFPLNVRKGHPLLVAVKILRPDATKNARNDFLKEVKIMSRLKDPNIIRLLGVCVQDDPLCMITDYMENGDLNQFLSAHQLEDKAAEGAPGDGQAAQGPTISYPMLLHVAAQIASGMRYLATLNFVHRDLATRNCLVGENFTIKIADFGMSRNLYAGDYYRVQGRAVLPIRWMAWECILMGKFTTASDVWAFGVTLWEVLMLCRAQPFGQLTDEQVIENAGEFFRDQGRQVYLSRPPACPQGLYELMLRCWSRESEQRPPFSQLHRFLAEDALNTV
# ASSAY EXPLANATION: KINOMEscan competition binding
# CONDITION DESCRIPTION: compound 10.0 µM
Below is a list of entries, each paired with its recorded kinase still bound, per cent of control value.
MEASURED METRIC: kinase still bound, per cent of control

STRUCTURE: O=C(Nc1cccc(Nc2ncc(Br)c(NCCc3cnc[nH]3)n2)c1)N1CCCC1
MEASURED METRIC: kinase still bound, per cent of control
RESULT: 100%

STRUCTURE: COc1cc(N2CCN(C)CC2)ccc1Nc1ncc2c(n1)N(C)c1ccccc1C(=O)N2C
MEASURED METRIC: kinase still bound, per cent of control
RESULT: 100%

STRUCTURE: CNC(=O)c1ccc(Nc2cc(Nc3ccccc3S(=O)(=O)C(C)C)c3cc[nH]c3n2)nc1
MEASURED METRIC: kinase still bound, per cent of control
RESULT: 100%

STRUCTURE: COc1cc2ncnc(-n3nc(-c4ccccn4)nc3N)c2cc1OC
MEASURED METRIC: kinase still bound, per cent of control
RESULT: 88%

STRUCTURE: COc1ccc(N(C(=O)Oc2c(C)cccc2C)c2ccnc(Nc3ccc(N4CCN(C)CC4)cc3)n2)c(OC)c1
MEASURED METRIC: kinase still bound, per cent of control
RESULT: 0.25%

STRUCTURE: COCC(=O)NC/C=C/c1ccc2ncnc(Nc3ccc(Oc4ccc(C)nc4)c(C)c3)c2c1
MEASURED METRIC: kinase still bound, per cent of control
RESULT: 52%

STRUCTURE: CS(=O)(=O)N1CCN(Cc2cc3nc(-c4cccc5[nH]ncc45)nc(N4CCOCC4)c3s2)CC1
MEASURED METRIC: kinase still bound, per cent of control
RESULT: 100%

STRUCTURE: COc1cc2ncn(-c3cc(OCc4ccccc4C(F)(F)F)c(C(N)=O)s3)c2cc1OC
MEASURED METRIC: kinase still bound, per cent of control
RESULT: 100%

STRUCTURE: NC(=O)Nc1cc(-c2cccc(F)c2)sc1C(=O)N[C@@H]1CCCNC1
MEASURED METRIC: kinase still bound, per cent of control
RESULT: 10%

This collection of values is drawn from the kinase profiling compilation of Christmann-Franck et al. (2016).
